- settings: Jordan Harbour brown bullhead, wet weight
- Procedure: Plasma from 9 individual male fish (500 µL/individual) was pooled to yield 3 samples for PPCP analysis. […] Plasma from 6 individual carp (2.3–3.5 g) from each location was selected for PPCP analysis. […] Plasma samples were frozen (−80 °C) until analysis. A total of 20 fish plasma samples from the pooled caged fish (7) and the wild fish (13) along with 12 water samples were selected for analysis. […] A full list of analytes is provided in Supplementary Information. […]
value.type: plasma concentration, JH-BB

# annotated cases, reported plasma concentration, JH-BB shown
molecule	result
NCCC(Oc1ccc(C(F)(F)F)cc1)c1ccccc1 (stereo not shown) [Norfluoxetine]	< 0.57 ng/g
CC(C)Cc1ccc(C(C)C(=O)O)cc1 (stereo not shown) [Ibuprofen]	< 5.7 ng/g
CC(C(=O)O)c1ccc(CC(C)(C)O)cc1 (stereo not shown) [2-Hydroxy-ibuprofen]	< 30.4 ng/g

Supply measured plasma concentration, JH-BB of CCN(CC)C(=O)c1cccc(C)c1 [DEET, N,N-Diethyl-m-toluamide] in your reply.
2.59 ng/g

Supply measured plasma concentration, JH-BB of Cc1ccc(C)c(OCCCC(C)(C)C(=O)O)c1 [Gemfibrozil] in your reply.
< 0.57 ng/g

Supply measured plasma concentration, JH-BB of O=C(Nc1ccc(Cl)cc1)Nc1ccc(Cl)c(Cl)c1 [Triclocarban] in your reply.
< 1.14 ng/g

Supply measured plasma concentration, JH-BB of Cn1c(=O)c2c(ncn2C)n(C)c1=O [Caffeine] in your reply.
< 5.7 ng/g

----------
- settings: wild goldfish sample 01, 2012, wet weight
value.type: plasma concentration, CPM wild-01 (ng/g)
Just the number in ng/g, nothing appended.

molecule	plasma concentration, CPM wild-01, ng/g
CN(C)CCC=C1c2ccccc2CCc2ccccc21	0.029
CN(C)CCC=C1c2ccccc2CC(O)c2ccccc21 (stereo not drawn) [10-hydroxy-amitriptyline]	0.015
Cc1ccc(C)c(OCCCC(C)(C)C(=O)O)c1	0.147
COc1ccc(C(CN(C)C)C2(O)CCCCC2)cc1 (stereo not drawn)	0.039
CCN(CC)C(=O)c1cccc(C)c1 [DEET, N,N-Diethyl-m-toluamide]	0.234

As a next step, examine the molecule that follows.
Supply measured plasma concentration, CPM wild-01 of NCCC(Oc1ccc(C(F)(F)F)cc1)c1ccccc1 (stereo not drawn) in your reply.
0.300

----------
- assay.name: Plasma bioaccumulation factor (BAFP), goldfish
- Format: in vivo, goldfish (Carassius auratus)
- settings: conc in fish plasma/conc in water
value.type: BAFP at CPM3, wild goldfish, average (L/kg)
Just the number in L/kg, nothing appended.

# annotated cases, reported BAFP at CPM3, wild goldfish, average shown
molecule	BAFP at CPM3, wild goldfish, average / L/kg
COc1ccc(C(CN(C)C)C2(O)CCCCC2)cc1 (stereo not shown)	14
CCN(CC)C(=O)c1cccc(C)c1 [DEET, N,N-Diethyl-m-toluamide]	9
CN(C)CCCC1(c2ccc(F)cc2)OCc2cc(C#N)ccc21 (stereo not shown)	44

As a next step, examine the molecule that follows.
Supply measured BAFP at CPM3, wild goldfish, average of C[C@H](O)C(=O)Nc1c(I)c(C(=O)NC(CO)CO)c(I)c(C(=O)NC(CO)CO)c1I in your reply.
38

----------
# maps each entry to its plasma concentration, JH-C 73
- settings: Jordan Harbour carp 73, Nov 7, 2011, female, wet weight
Just the number in ng/g, nothing appended.

compound	measured.number
COc1ccc(C(CN(C)C)C2(O)CCCCC2)cc1 (centres unmarked)	0.041

As a next step, examine the compound that follows.
Supply measured plasma concentration, JH-C 73 of CCN(CC)C(=O)c1cccc(C)c1 [DEET, N,N-Diethyl-m-toluamide] in your reply.
0.083

This collection of values is drawn from paper PMC5717258.
